Origin of the recorded values: patent US8084467B2

- SYSTEM UNDER TEST: CB2 receptor (Mus musculus, UniProt P47936)
- Construct: membranes were prepared from frozen mouse spleen; from tissue; host or cells: mouse spleen
- Sequence (P47936 whole entry): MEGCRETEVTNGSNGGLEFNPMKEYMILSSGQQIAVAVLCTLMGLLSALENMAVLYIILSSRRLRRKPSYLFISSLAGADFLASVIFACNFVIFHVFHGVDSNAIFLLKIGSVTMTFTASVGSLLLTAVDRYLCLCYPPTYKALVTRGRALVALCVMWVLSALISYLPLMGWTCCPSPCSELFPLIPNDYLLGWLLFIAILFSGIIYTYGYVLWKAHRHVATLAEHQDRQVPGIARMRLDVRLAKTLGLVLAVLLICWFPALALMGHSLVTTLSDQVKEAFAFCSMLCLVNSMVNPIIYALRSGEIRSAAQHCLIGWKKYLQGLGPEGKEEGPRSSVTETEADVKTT
- TEST DETAILS: CB2 receptor binding, mouse spleen membranes, same manner as the CB1 binding assay
- RECORDED CONDITIONS: mouse spleen membranes, [3H] CP-55,940; read-out: affinities Ki CB2
pKi: −log10 of the molar value.
ENDPOINT NAME: pKi

1) O=C(NN1CCCCC1)c1nn(-c2ccc(Cl)cc2Cl)c(-c2ccc(-c3cccnc3)cc2)c1CO [Compound 1-5] | 5.64
2) Cc1c(NC(=O)N(C)C2CCCCC2)nn(-c2ccc(Cl)cc2Cl)c1-c1ccc(Br)cc1 [Compound 3-11] | 6.04
3) Cc1c(C(=O)NN2CCCCC2)nn(-c2ccc(Cl)cc2Cl)c1-c1ccc(-c2nnn[nH]2)cc1 [Compound 2-1] | 6.15
4) Cc1c(NC(=O)OC2CCCCC2)nn(-c2ccc(Cl)cc2Cl)c1-c1ccc(Br)cc1 [Compound 3-9] | 6.35

###

- SYSTEM UNDER TEST: CB2 receptor (Mus musculus)
- Construct: membranes were prepared from frozen mouse spleen; from tissue; host or cells: mouse spleen
- TEST DETAILS: CB2 receptor binding, mouse spleen membranes, same manner as the CB1 binding assay
- RECORDED CONDITIONS: mouse spleen membranes, [3H] CP-55,940; read-out: affinities Ki CB2
- Procedure: Some of the inventive analogs were tested for CB2 receptor binding affinity and for CB1 receptor affinity (to determine selectivity). […] The lower the Ki value the higher the binding affinity. The treated membranes were subsequently used in the binding assay described below. […] Radioactivity was detected using MicroScint 20 scintillation cocktail added directly to the dried filterplates, and the filterplates were counted using a Packard Instruments Top-Count. […]
ENDPOINT NAME: Ki (nM)

1) CN(C(=O)c1nn(-c2ccc(Cl)cc2Cl)c(-c2ccc(-c3nnn[nH]3)cc2)c1CO)C1CCCCC1 [Compound 2-16] | 1120
2) COCc1c(C(=O)NC23CC4CC(CC(C4)C2)C3)nn(-c2ccc(Cl)cc2Cl)c1-c1ccc(Br)cc1 [Compound 1-7] | 1680
3) Cc1c(C(=O)NN2CCCCC2)nn(-c2ccc(Cl)cc2Cl)c1-c1ccc(-c2nnnn2C)cc1 [Compound 2-2] | 242
4) CN(C(=O)c1nn(-c2ccc(Cl)cc2Cl)c(-c2ccc(-c3nnn(C)n3)cc2)c1CO)C1CCCCC1 [Compound 2-18] | 641
5) Cc1c(C(=O)N(C)C2CCCCC2)nn(-c2ccc(Cl)cc2Cl)c1-c1ccc(C#N)cc1 [Compound 3-15] | 10800
6) O=C(NN1CCCCC1)c1nn(-c2ccc(Cl)cc2Cl)c(-c2ccc(-c3cccnc3)cc2)c1CF [Compound 1-6] | 1930
7) Cc1c(C(=O)NN2CCCCC2)nn(-c2ccc(Cl)cc2Cl)c1-c1ccc(-c2nnn(C)n2)cc1 [Compound 2-3] | 517

###

- SYSTEM UNDER TEST: CB1 cannabinoid receptor (Rattus norvegicus, UniProt P20272)
- Construct: membranes were prepared from rat forebrain membranes; from tissue; host or cells: rat forebrain
- Sequence (P20272 whole entry): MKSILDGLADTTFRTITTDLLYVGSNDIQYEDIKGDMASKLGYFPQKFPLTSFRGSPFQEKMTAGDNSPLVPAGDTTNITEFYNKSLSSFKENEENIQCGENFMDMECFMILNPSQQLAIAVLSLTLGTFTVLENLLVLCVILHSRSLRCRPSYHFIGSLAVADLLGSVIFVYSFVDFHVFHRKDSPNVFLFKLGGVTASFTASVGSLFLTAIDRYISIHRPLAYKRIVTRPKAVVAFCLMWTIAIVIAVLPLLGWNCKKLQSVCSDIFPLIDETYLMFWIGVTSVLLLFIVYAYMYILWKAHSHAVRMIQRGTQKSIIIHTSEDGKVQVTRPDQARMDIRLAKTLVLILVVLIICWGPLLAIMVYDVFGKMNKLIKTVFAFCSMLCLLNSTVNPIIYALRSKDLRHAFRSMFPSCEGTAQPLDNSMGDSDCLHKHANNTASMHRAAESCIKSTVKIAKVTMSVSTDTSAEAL
- TEST DETAILS: CB1 receptor binding, rat forebrain membranes, [3H] CP-55,940 displacement
- RECORDED CONDITIONS: ratio of CB2 Ki to CB1 Ki
selectivity CB1 strictly less than 20 = Condition met. Otherwise Condition not met.

1. O=C(Nc1nn(-c2ccc(Cl)cc2Cl)c(-c2ccc(Br)cc2)c1CBr)NC1CCCCC1 [Compound 3-7] | Condition met
2. Cc1c(C(O)C(O)c2ccccc2)nn(-c2ccc(Cl)cc2Cl)c1-c1ccc(Br)cc1 (stereo not drawn) [Compound 1-28] | Condition met
3. O=C(NC1CCCCC1)c1nn(-c2ccc(Cl)cc2Cl)c(-c2ccc(-c3nnn[nH]3)cc2)c1CO [Compound 2-10] | Condition met
4. Cc1c(C(=O)NN2CCCCC2)nn(-c2ccc(Cl)cc2Cl)c1-c1ccc(Br)cc1 [Compound 3-16] | Condition not met
5. Cc1c(C(=O)NC2CCCCC2)nn(-c2ccc(Cl)cc2Cl)c1-c1ccc(-c2nnn(C)n2)cc1 [Compound 2-9] | Condition met
6. COCc1c(C(=O)NC2CCCCC2)nn(-c2ccc(Cl)cc2Cl)c1-c1ccc(Br)cc1 [Compound 1-9] | Condition not met
7. CCOCc1c(C(=O)NC23CC4CC(CC(C4)C2)C3)nn(-c2ccc(Cl)cc2Cl)c1-c1ccc(Br)cc1 [Compound 1-11] | Condition not met
8. Cn1nnc(-c2ccc(-c3c(CO)c(C(=O)NC4CCCCC4)nn3-c3ccc(Cl)cc3Cl)cc2)n1 [Compound 2-12] | Condition met
9. Cc1c(C=Cc2ccccc2)nn(-c2ccc(Cl)cc2Cl)c1-c1ccc(Br)cc1 [Compound 1-24] | Condition not met
10. O=C(NC1CCCCC1)c1nn(-c2ccc(Cl)cc2Cl)c(-c2ccc(Br)cc2)c1CO [Compound 3-18] | Condition not met
11. Cc1c(NC(=O)NC23CC4CC(CC(C4)C2)C3)nn(-c2ccc(Cl)cc2Cl)c1-c1ccc(Br)cc1 [Compound 3-12] | Condition met
12. COCOCc1c(C(=O)N2CCCCC2)nn(-c2ccc(Cl)cc2Cl)c1-c1ccc(Br)cc1 [Compound 1-14] | Condition met
13. Cn1nnnc1-c1ccc(-c2c(CO)c(C(=O)NN3CCCCC3)nn2-c2ccc(Cl)cc2Cl)cc1 [Compound 2-5] | Condition met
14. N#Cc1ccc(-c2c(CO)c(C(=O)NN3CCCCC3)nn2-c2ccc(Cl)cc2Cl)cc1 [Compound 3-22] | Condition not met
15. COCc1c(C(=O)NC2CCCCC2)nn(-c2ccc(Cl)cc2Cl)c1-c1ccc(-c2cccnc2)cc1 [Compound 1-18] | Condition met
